Reported EC50 hGLP1 R (cAMP, HEK293 cells expressing the GLP-1R) values for the following binders.
Molecular target: human GLP-1 receptor (human, UniProt P43220 24-463)
Experiment: cell-based or functional assay
Starred links: 1 amine or outer side, 2 acyl side, 3 side chain; linkers in the order of their positions; H or OH if unused. Non-standard residues stand in square brackets, D forms with d. Groups on a side chain read outwards from the residue. *: point of attachment. C20 diacid = O=C(O)CCCCCCCCCCCCCCCCCCC(=O)*; γGlu = O=C(O)[C@H](CCC(=O)[*:2])N[*:1]; Aib = CC(C)(N)C(=O)O

Observe how each entry below is paired with its result.
# BINDER, RESULT
data = [
    ("H-Y[Aib]EGTFISDYSIELDKK([Peg3-Peg3-γGlu-C20 diacid])AAQDFINWLLAQGPSSGAPPPS-NH2 [Compound 39]", "> 100 nM"),
    ("H-Y[Aib]EGTFISDYSIELDKIAAQDFVEWLLAGPSSGAPPPSK([Peg3-Peg3-γGlu-C20 diacid])-NH2 [Compound 27]", "> 10 nM"),
    ("YAEGTFISDYSIELDKKAAQDFIEWLLAGPSSGAPPPS (Aib at 2; Lys 17 side chain acylated: K((19-Carboxy-nonadecanoyl)-[(Piperazine-1-yl)-acetyl]-Peg3-Peg3); C-terminal amide (-NH2)) [Compound 33]", "> 10 nM"),
    ("YAEGTFISDYSIELDKIAAQDFIEWLLAGPSSGAPPPSK (Aib at 2; Lys 39 side chain acylated: K((19-Carboxy-nonadecanoyl)-[(Piperazine-1-yl)-acetyl]-Peg3-Peg3); C-terminal amide (-NH2)) [Compound 26]", "> 10 nM"),
    ("H-Y[Aib]EGTFISDYSIELEKIAQRAFVEWLLAQGPSSGAPPPSK([Peg3-Peg3-γGlu-C20 diacid])-NH2 [Compound 13]", "> 10 nM"),
    ("H-Y[Aib]EGTFISDYSIELDKIAAQDFIEWLLAGPSSGAPPPSK([Peg3-Peg3-γGlu-C20 diacid])-NH2 [Compound 25]", "> 100 nM"),
    ("H-Y[Aib]EGTFISDYSIELEKK([Peg3-Peg3-γGlu-C20 diacid])AQRAFVEWLLAQGPSSGAPPPS-NH2 [Compound 12]", "> 3 nM"),
    ("H-Y[Aib]EGTFISDYSIELDKK([Peg3-Peg3-γGlu-C20 diacid])AAQDFINWLLAGPSSGAPPPS-NH2 [Compound 31]", "> 100 nM"),
    ("YAEGTFISDYSIELDKKAQKEFVEWLLAAGPSSGAPPPS (Aib at 2; Lys 17 side chain acylated: K((19-Carboxy-nonadecanoyl)-[(Piperazine-1-yl)-acetyl]-Peg3-Peg3); C-terminal amide (-NH2)) [Compound 21]", "> 3 nM"),
]

Incoming: Give the measured EC50 hGLP1 R (cAMP, HEK293 cells expressing the GLP-1R) of H-Y[Aib]EGTFISDYSIELDKK([Peg3-Peg3-γGlu-C20 diacid])AAQDFVNWLLAQGPSSGAPPPS-NH2 [Compound 10] .
Outgoing: > 10 nM
